Target: HIV-1 envelope glycoprotein gp120 of virus VS001 (HIV-1)
Test: cell-based or functional assay
measurement kind: neutralization IC50 (µg/mL)
Report the figure in µg/mL without appending any unit label.

Ask: Tell us which neutralization IC50 value is on record for 1.1.102-1 (antibody, human IgG1, kappa, V domains shown) VH: QVQLLQSGAAVTKPGASVRVSCEASGYNIRDYFIHWWRQAPGQGLQWVGWINPKTGQPNNPRQFQGRVSLTRHASWDFDTFSFYMDLKALRSDDTAVYFCARQRSDYWDFDVWGSGTQVTVSS VL: DIQMTQSPSSLSASVGDRATITCQANGYLNWYQQRRGKAPKLLIYDGSKLERGVPSRFSGSRWGQEYHLTISSLQPEDIATYFCQVYEFFGPGTRLDLKR
Result: 3

Ask: Tell us which neutralization IC50 value is on record for 2.3.15-1 (antibody, human IgG1, kappa, V domains shown) VH: QVHLSQSGAAVTKPGASVRVSCEASGYNIRDYFIHWWRQAPGQGLQWVGWINPKTGQPNNPRQFQGRVSLTRHASWDFDTFSFYMDLKAVRSDDTAIYFCARQRSDYWDFDVWGSGTQVTVSS VL: DIQMTQSPSSLSARVGDTATITCQANGYLNWYQQRRGKAPKLLIYDGSKLERGVPARFSGRRWGQEYTLTINNLQPEDVATYFCQVYEFFGPGTRLDLKR
Result: 0.85

Cited source: patent US20240034774A1
